- Test system: PPARg:RXRa (NR concentration 180 nM, RXRa partner concentration 90 nM)
- protocol_description: PBM binding z-score (relative to random genomic background probes); higher = stronger binding; sequences stand for … in GC…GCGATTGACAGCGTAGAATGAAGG
attribute_measured: PBM binding z-score
Note: the reply should be a number with no unit written.

A selection of reference data follows.
[in] Give me measured PBM binding z-score, please, for this sequence: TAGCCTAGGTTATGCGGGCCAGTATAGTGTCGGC
[out] 0.00764

[in] Given the sequence CCTCGGAGGACACCAGGAGGTCAGAGCTGCCAGA , write its reported PBM binding z-score.
[out] 0.153

[in] Let me know recorded PBM binding z-score for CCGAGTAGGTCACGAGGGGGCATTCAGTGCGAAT , thanks.
[out] 7.8

[in] Complete the entry with PBM binding z-score for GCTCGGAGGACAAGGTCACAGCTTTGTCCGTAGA
[out] 3.68

[in] Tell me its PBM binding z-score given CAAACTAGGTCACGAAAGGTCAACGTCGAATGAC as the entry.
[out] 10.6

More entries:
[in] Tell me PBM binding z-score reported for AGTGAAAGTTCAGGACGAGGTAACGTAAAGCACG
[out] 3.61

[in] Tell me its PBM binding z-score given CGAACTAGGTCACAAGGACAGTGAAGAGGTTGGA as the entry.
[out] 8.73

[in] Using known records, supply PBM binding z-score for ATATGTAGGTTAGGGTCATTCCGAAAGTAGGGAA
[out] 7.77

[in] // fetch PBM binding z-score given entry CCGAGTAGGTTACGAGGTGGCATTCAGTGCGAAT
[out] 1.79

[in] Supply measured PBM binding z-score of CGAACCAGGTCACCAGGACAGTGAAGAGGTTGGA in your reply.
[out] 6.6

[in] Please indicate PBM binding z-score recorded for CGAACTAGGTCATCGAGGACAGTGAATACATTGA
[out] 7.79
